Molecular target: SIX1-Q177R homeodomain (human, UniProt Q15475 108-198, Q177R)
Sequence: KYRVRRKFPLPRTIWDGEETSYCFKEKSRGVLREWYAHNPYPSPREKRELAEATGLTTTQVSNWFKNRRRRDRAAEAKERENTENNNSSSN
Assay: universal protein binding microarray; Universal all-10-mer PBM (8x60K, AMADID 030236), 300 nM GST-tagged protein, Alexa Fluor 488 anti-GST; buffer, salt, pH and temperature not stated (as in Berger); high values mean tight binding
Conditions: protein: ivt; tags: N-terminal GST; dsDNA, one strand shown
Over roughly 33,000 sequences, “e-score” has its median near -0.05; the highest 2% begin near 0.38. The entries come from a sample that favours the highest values as a whole.
Assay Endpoint: binding signal (E-score)
Lab book: enter the figure in E-score, no units written.

-- ask Any idea what its binding signal is? The sequence is ACATCGTG
-- reply 0.151

-- ask Request: GACACTTA
-- reply 0.383

-- ask Request: TACCCGTA
-- reply 0.168

-- ask Request: AGAGTATC
-- reply 0.238

-- ask Request: ACACTGGT
-- reply 0.426

-- ask Request: CGTGTATC
-- reply 0.39

-- ask Request: CGGGTATC
-- reply 0.374

-- ask Request: ACTGCATA
-- reply 0.214

-- ask Request: GGGAGTAC
-- reply 0.259

-- ask Request: CCCCACTC
-- reply 0.18

-- ask Request: CACCATCC
-- reply 0.252
